B1: ZC3H15 (parent)
chain: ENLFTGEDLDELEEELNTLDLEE

Variants of: B1
assayProtocol: protein stability index of a GFP-peptide fusion (GPS, HEK-293T) (PSI 1-6); higher = more stable;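 note: lentivirally expressed fusions sorted by FACS into six bins by GFP to DsRed ratio, PSI derived from sequencing read proportions per bin multiplied by bin number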
measurementParameters: c terminus: native
Assign TRUE to entries whose protein stability index meets or exceeds 5; assign FALSE to the rest.

[
  {
    "variantDescriptor": "E23D",
    "groupLabel": "TRUE"
  },
  {
    "variantDescriptor": "E13F",
    "groupLabel": "FALSE"
  },
  {
    "variantDescriptor": "N17F",
    "groupLabel": "FALSE"
  },
  {
    "variantDescriptor": "E14D",
    "groupLabel": "FALSE"
  },
  {
    "variantDescriptor": "L9Y",
    "groupLabel": "FALSE"
  },
  {
    "variantDescriptor": "T18P",
    "groupLabel": "FALSE"
  },
  {
    "variantDescriptor": "D10I",
    "groupLabel": "FALSE"
  },
  {
    "variantDescriptor": "L21H",
    "groupLabel": "FALSE"
  },
  {
    "variantDescriptor": "E15F",
    "groupLabel": "FALSE"
  },
  {
    "variantDescriptor": "L3W",
    "groupLabel": "FALSE"
  },
  {
    "variantDescriptor": "L3C",
    "groupLabel": "FALSE"
  },
  {
    "variantDescriptor": "E7R",
    "groupLabel": "FALSE"
  },
  {
    "variantDescriptor": "E23S",
    "groupLabel": "TRUE"
  },
  {
    "variantDescriptor": "N2H",
    "groupLabel": "FALSE"
  },
  {
    "variantDescriptor": "D20C",
    "groupLabel": "TRUE"
  },
  {
    "variantDescriptor": "E15N",
    "groupLabel": "FALSE"
  },
  {
    "variantDescriptor": "E7W",
    "groupLabel": "FALSE"
  },
  {
    "variantDescriptor": "N17M",
    "groupLabel": "FALSE"
  },
  {
    "variantDescriptor": "L12S",
    "groupLabel": "FALSE"
  },
  {
    "variantDescriptor": "E11H",
    "groupLabel": "FALSE"
  }
]

These entries and their values trace back to the supplement of paper PMC10567573.
